- target-or-test-system: Galectin-1 (Homo sapiens)
- Sequence (P09382 whole entry): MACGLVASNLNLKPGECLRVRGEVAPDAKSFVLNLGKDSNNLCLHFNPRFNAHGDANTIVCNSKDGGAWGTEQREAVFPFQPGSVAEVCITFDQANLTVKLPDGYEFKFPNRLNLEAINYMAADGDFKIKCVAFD
- assay-details: Fluorescence Anisotropy Assay: Compounds for galectins were determined by a fluorescence anisotropy assay where the compound was used as an inhibitor of the interaction between galectin and a fluorescein tagged saccharide probe.
pKd: −log10 of the molar value.
recorded-metric: pKd

{"molecule": "OCC1O[C@H](Sc2cc(Cl)c(F)c(Cl)c2)C(O)[C@@H](n2cc(-c3nccs3)nn2)[C@H]1O (stereo partly specified)", "val": 6.55}

====

- target-or-test-system: Galectin-3 (Homo sapiens, UniProt P17931)
- Sequence (P17931 whole entry): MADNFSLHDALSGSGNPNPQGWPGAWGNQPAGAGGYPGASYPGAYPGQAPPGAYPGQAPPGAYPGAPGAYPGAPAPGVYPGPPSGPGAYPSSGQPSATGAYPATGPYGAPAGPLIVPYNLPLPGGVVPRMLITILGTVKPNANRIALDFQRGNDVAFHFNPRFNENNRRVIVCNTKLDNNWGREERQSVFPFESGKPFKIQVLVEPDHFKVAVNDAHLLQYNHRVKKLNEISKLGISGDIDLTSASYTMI
- assay-details: Fluorescence Anisotropy Assay: Compounds for galectins were determined by a fluorescence anisotropy assay where the compound was used as an inhibitor of the interaction between galectin and a fluorescein tagged saccharide probe.
pKd: −log10 of the molar value.

{"molecule": "OCC1O[C@H](Sc2cc(Cl)c(F)c(Cl)c2)C(O)[C@@H](n2cc(-c3nccs3)nn2)[C@H]1O (stereo partly specified)", "pKd": 5.00}
